Biological target: TRPM7 (Mus musculus, UniProt Q923J1)
Construct: expressed in transfected cells; host or cells: HEK-293 tSA (HEK-293T) cells, transient transfection with Lipofectamine 2000
Sequence (Q923J1 whole entry): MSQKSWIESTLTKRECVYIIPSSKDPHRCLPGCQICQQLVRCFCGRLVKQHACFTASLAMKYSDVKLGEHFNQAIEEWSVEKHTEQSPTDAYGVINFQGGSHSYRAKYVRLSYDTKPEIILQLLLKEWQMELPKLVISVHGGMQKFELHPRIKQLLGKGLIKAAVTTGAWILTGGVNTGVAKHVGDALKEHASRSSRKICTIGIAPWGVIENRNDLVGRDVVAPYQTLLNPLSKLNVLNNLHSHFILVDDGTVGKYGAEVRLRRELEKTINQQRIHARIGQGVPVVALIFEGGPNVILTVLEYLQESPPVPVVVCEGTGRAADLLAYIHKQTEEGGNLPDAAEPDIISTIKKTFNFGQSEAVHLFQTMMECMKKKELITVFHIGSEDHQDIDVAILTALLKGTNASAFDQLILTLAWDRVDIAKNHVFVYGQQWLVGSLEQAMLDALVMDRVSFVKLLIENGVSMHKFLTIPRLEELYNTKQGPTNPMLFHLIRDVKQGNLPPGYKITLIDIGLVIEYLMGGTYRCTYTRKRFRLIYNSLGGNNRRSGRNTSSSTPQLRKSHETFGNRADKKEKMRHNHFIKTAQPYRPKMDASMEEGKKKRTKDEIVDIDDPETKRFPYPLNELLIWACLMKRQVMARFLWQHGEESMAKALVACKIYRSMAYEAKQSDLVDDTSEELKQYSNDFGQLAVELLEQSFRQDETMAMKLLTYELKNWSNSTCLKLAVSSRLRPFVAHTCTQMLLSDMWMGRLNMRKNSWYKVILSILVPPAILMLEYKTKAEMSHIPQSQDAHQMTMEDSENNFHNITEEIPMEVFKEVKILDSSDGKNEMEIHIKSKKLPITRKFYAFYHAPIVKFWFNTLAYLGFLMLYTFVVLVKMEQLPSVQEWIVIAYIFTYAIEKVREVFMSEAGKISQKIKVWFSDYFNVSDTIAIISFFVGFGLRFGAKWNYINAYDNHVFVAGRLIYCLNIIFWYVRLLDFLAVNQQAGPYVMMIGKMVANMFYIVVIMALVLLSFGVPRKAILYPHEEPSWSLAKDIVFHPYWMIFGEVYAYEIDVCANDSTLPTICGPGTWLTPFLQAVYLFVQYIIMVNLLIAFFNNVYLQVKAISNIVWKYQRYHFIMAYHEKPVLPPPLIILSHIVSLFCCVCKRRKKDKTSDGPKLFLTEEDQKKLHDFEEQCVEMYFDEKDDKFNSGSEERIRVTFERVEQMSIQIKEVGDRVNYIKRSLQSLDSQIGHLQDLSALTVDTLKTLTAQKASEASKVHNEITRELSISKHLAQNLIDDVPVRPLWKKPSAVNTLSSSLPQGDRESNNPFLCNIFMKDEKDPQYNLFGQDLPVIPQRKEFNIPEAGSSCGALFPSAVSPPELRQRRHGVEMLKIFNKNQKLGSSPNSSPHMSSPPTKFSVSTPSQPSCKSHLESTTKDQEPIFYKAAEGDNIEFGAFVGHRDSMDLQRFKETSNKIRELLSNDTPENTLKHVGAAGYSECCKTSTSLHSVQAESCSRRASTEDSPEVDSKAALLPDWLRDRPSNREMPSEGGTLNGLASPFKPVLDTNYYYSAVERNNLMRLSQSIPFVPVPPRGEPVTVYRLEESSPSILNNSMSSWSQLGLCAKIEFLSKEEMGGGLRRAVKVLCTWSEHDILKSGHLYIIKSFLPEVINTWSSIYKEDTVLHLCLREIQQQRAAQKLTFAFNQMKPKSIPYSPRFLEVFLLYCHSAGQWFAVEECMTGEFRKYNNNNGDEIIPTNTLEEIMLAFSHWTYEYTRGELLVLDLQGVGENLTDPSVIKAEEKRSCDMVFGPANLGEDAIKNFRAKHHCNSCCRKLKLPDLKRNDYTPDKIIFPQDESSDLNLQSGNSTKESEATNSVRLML
Assay: PI uptake cell death assay in TRPM7-expressing HEK-293 cells (type of assay from Example 1)
Format: cell-based, murine
Conditions: 5 μM; Table X; the lower the number, the more potent in protecting against cell death
Rule: Normalized ratio of PI uptake (5 μM) below 0.1 gives true (1). Equal to or above 0.1 gives false (0).

{"molecule": "COc1cc(OC)c2c(C)c(Cc3ccccc3)c(=O)[nH]c2c1", "assayed target": "TRPM7 (Mus musculus, UniProt Q923J1)", "category": "false (0)"}

q: Is Normalized ratio of PI uptake (5 μM) of COc1cc2c(cc1OC)C(c1sc3cc(C(F)(F)F)ccc3c1Cl)NCC2 (centres unmarked) strictly below 0.1?
a: true (1)

q: Is Normalized ratio of PI uptake (5 μM) of `COc1cc(OC)c2c(C)c(Cc3ccc(Cl)cc3)c(=O)[nH]c2c1` strictly below 0.1?
a: true (1)

q: Is Normalized ratio of PI uptake (5 μM) of Clc1cccc2c1CCNC2c1sc2ccccc2c1Cl (centres unmarked) strictly below 0.1?
a: false (0)

q: Is Normalized ratio of PI uptake (5 μM) of Cc1ccc2c(c1)CCN(C)C2c1sc2ccccc2c1Cl (centres unmarked) strictly below 0.1?
a: false (0)

----------
Biological target: TRPM7 (Mus musculus, UniProt Q923J1)
Construct: expressed in transfected cells; host or cells: HEK-293 tSA (HEK-293T) cells, transient transfection with Lipofectamine 2000
Test: PI uptake cell death assay in TRPM7-expressing HEK-293 cells (type of assay from Example 1)
Assay type: cell-based, murine
Settings: Table Y, commercially available compounds
Rule: IC50 below 3 µM gives 1. Equal to or above 3 µM gives 0.

q: Is IC50 of O=C(NC1CCOc2ccccc21)c1cc2ccccc2[nH]1 (stereo not shown) [T6749380 #12, reference compound] strictly below 3 µM?
a: 1

q: Is IC50 of Cc1c(Cc2ccc(F)cc2)c(=O)oc2cc(O)ccc12 [RJF01910SC #10, reference compound] strictly below 3 µM?
a: 0

q: Is IC50 of CC1c2ccsc2CCN1C(=O)c1c(Cl)c2ccccc2n1C (stereo not shown) [T6857127 #7, reference compound] strictly below 3 µM?
a: 1

q: Is IC50 of Cc1c(Cc2ccccc2)c(=O)oc2cc(O)c(Cl)cc12 [STOCK6S- 31467 #2, reference compound] strictly below 3 µM?
a: 0

q: Is IC50 of CCCc1c(Cc2c(F)cccc2Cl)c(=O)oc2cc(O)ccc12 [RJF01538SC #14, reference compound] strictly below 3 µM?
a: 1

q: Is IC50 of COc1ccc(-c2n[nH]cc2CN(C)Cc2cc3ccccc3s2)cc1F [Ambcb42783454 #13, reference compound] strictly below 3 µM?
a: 0

q: Is IC50 of O=C(c1sc2ccccc2c1Cl)N(Cc1ccccc1)c1ccccc1 [MCC1879 #5, reference compound] strictly below 3 µM?
a: 1

----------
Reported Normalized ratio of PI uptake (5 μM) values are given for each entry in this list.
Molecular target: TRPM7 (Mus musculus)
Construct: expressed in transfected cells; host or cells: HEK-293 tSA (HEK-293T) cells, transient transfection with Lipofectamine 2000
Experiment: PI uptake cell death assay in TRPM7-expressing HEK-293 cells (type of assay from Example 1)
Format: cell-based, murine
Details: 5 μM; Table Y, commercially available compounds

{"compound": "CC1c2ccsc2CCN1C(=O)c1[nH]c2ccccc2c1Cl (stereo not drawn) [T6899791 #8, reference compound]", "result": 0}
{"compound": "CCN(CC)Cc1c(O)ccc2c(C)c(Cc3ccccc3)c(=O)oc12 [STOCK4S- 10213 #1, reference compound]", "result": 0.398}

Now consider the entry below.
q: Return the recorded Normalized ratio of PI uptake (5 μM) value; entry: COc1ccccc1C(C)N(C)C(=O)c1cc2ccccc2s1 (stereo not drawn) [T6681713 #6, reference compound]
a: 0.328
